pKi: −log10 of the molar value.
Endpoint: pKi. System: hSERT (Homo sapiens). Items follow.
Sequence (P31645 whole entry): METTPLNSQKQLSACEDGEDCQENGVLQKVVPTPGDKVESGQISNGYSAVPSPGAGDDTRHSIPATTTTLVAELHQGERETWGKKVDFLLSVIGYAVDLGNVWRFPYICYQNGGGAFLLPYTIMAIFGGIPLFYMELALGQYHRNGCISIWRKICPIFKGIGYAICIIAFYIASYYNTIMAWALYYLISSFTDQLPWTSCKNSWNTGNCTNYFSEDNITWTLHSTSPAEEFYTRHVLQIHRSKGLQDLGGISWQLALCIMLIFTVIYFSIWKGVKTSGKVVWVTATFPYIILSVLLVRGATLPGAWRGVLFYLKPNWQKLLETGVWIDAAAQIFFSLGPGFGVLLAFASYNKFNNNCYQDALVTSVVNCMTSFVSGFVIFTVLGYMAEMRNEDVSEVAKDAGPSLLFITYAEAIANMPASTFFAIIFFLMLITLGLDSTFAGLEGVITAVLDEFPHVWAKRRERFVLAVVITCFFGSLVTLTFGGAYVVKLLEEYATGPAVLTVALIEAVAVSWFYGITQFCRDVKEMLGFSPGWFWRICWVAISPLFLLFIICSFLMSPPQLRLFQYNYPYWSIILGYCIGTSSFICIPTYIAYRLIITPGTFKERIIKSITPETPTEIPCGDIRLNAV

Compound	pKi
CCCC(C(=O)c1cccc(F)c1)N1CCCC1 (stereo not shown)	4.20
CCCC(C(=O)c1cccc(Br)c1)N1CCCC1 (stereo not shown)	5.25
CCCC(C(=O)c1cccc(Cl)c1)N1CCCC1 (stereo not shown)	4.78
CCCC(C(=O)c1ccc(Br)cc1)N1CCCC1 (stereo not shown)	5.90

---

# Target System: hDAT (Homo sapiens, UniProt Q01959)
# Sequence (Q01959 whole entry): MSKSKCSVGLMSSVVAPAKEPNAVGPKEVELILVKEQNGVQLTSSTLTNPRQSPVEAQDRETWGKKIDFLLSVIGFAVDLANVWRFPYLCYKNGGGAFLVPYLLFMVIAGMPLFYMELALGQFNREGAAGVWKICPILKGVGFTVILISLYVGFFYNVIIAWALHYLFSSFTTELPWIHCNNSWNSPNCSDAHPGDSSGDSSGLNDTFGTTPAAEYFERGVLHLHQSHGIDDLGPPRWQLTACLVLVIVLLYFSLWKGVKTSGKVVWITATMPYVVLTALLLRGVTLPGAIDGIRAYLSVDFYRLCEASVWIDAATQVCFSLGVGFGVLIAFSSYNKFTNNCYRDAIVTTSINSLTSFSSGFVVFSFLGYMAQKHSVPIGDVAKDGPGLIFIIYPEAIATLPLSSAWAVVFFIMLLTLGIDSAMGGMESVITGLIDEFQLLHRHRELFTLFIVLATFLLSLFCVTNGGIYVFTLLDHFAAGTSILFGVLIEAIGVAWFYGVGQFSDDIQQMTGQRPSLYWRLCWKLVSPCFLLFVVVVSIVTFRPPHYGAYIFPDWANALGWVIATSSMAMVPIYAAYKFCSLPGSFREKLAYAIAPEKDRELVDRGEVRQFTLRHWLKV
# Method Description: Uptake inhibition assay, [3H]MPP+ uptake in transfected HEK293 cells
# Reported Conditions: […]
hDAT/hSERT Inhibition Ratio of 1000 or higher: t. Under 1000: f.

Compound	Assigned Label
CCCC(C(=O)c1cccc(Cl)c1)N1CCCC1 (stereo not drawn) [3-Cl-α-PVP, 3-Chloro-α-Pyrrolidinopentiophenone]	f
CCCC(C(=O)c1cccc(F)c1)N1CCCC1 (stereo not drawn) [3-F-α-PVP, 3-Fluoro-α-Pyrrolidinopentiophenone]	t
CCCC(C(=O)c1ccc(F)cc1)N1CCCC1 (stereo not drawn) [4-F-α-PVP, 4-Fluoro-α-Pyrrolidinopentiophenone]	t
CCCC(C(=O)c1ccc(Cl)c(Cl)c1)N1CCCC1 (stereo not drawn) [3,4-Cl-α-PVP, 3,4-Dichloro-α-Pyrrolidinopentiophenone]	f
CCCC(C(=O)c1ccc(Br)cc1)N1CCCC1 (stereo not drawn) [4-Br-α-PVP, 4-Bromo-α-Pyrrolidinopentiophenone]	f
CCCC(C(=O)c1ccc(Cl)cc1)N1CCCC1 (stereo not drawn) [4-Cl-α-PVP, 4-Chloro-α-Pyrrolidinopentiophenone]	f
CCCC(C(=O)c1ccccc1)N1CCCC1 (stereo not drawn) [α-PVP, α-Pyrrolidinopentiophenone]	t
CCCC(C(=O)c1cccc(Br)c1)N1CCCC1 (stereo not drawn) [3-Br-α-PVP, 3-Bromo-α-Pyrrolidinopentiophenone]	f
